# System Tested: Cytochrome P450 2D6 (Homo sapiens) (UniProt P10635)
# Sequence (P10635 whole entry, looked up): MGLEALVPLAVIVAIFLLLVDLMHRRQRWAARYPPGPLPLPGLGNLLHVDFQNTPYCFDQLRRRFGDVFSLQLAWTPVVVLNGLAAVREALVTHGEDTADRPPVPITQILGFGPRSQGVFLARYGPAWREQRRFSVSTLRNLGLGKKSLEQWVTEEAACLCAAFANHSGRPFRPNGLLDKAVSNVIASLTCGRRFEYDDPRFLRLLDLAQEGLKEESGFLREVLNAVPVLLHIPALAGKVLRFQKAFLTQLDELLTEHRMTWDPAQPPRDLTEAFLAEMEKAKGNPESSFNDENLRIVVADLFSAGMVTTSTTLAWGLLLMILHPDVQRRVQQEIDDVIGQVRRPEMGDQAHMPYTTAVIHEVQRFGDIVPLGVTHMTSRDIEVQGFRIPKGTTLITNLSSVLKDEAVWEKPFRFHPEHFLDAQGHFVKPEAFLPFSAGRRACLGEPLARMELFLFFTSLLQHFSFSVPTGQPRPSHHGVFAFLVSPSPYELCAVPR
# Experiment: Cytochrome P450 Family 2 Subfamily D Member 6 (CYP2D6) small molecule antagonists: luciferase reporter qHTS assay (AID 1671196); further: nearly all actives have a fitted effect of over 50% in size
# Test Settings: P450-Glo CYP2D6 enzyme assay, luciferin luminescence, 1 h; series mostly up to 115 µM
Inconclusive results are not listed. Calls of active or inactive are those of the source. The call rests on the fitted dose curve; in most records, active means well fitted inhibition curve with a large enough effect in the repeat runs; inconclusive means weak or mixed curves; inactive means no such curve, though single readings can be large or run the other way.
Tick one outcome: yes (1) for active, no (0) for inactive

Use these answered entries as a reference point.
CC(CCc1ccc(O)cc1)NCCc1ccc(O)c(O)c1 (configuration not stated)
yes (1)
COC(OC)OC
no (0)

### Prompt Test call, this compound: CC(C(=O)O)c1ccc(C(=O)c2cccs2)cc1 (configuration not stated)
### Response no (0)

### Prompt Test call, this compound: CCC(CO)(CO)CO
### Response no (0)

### Prompt Test call, this compound: N[C@@H](Cc1cc(I)c(O)c(I)c1)C(=O)O
### Response no (0)

### Prompt Test call, this compound: ClC1=C(Cl)C1(Cl)Cl
### Response no (0)

### Prompt Test call, this compound: CCCOC(=O)c1c(Cl)c(Cl)c(Cl)c(Cl)c1C(=O)OCCC
### Response no (0)

### Prompt Test call, this compound: CN1C(CSCC(F)(F)F)Nc2cc(Cl)c(S(N)(=O)=O)cc2S1(=O)=O (configuration not stated)
### Response no (0)

### Prompt Test call, this compound: CC(=O)OCC1=C(C(=O)O)N2C(=O)[C@@H](NC(=O)CSc3ccncc3)[C@H]2SC1
### Response yes (1)

### Prompt Test call, this compound: COC(=O)CC(C(C)=O)C(=O)OC (configuration not stated)
### Response no (0)

### Prompt Test call, this compound: O=[N+]([O-])c1ccc2ncccc2c1
### Response yes (1)

### Prompt Test call, this compound: CC1CCC(C(C)CS)CC1S (configuration not stated)
### Response no (0)

### Prompt Test call, this compound: CCN(CC)CC(=O)Nc1c(C)cccc1C(=O)OC
### Response yes (1)

### Prompt Test call, this compound: CCO[Si](C)(CCCOCC1CO1)OCC (configuration not stated)
### Response no (0)

### Prompt Test call, this compound: CC(=O)OCC(C)C
### Response no (0)

### Prompt Test call, this compound: CC(=O)NCCO
### Response no (0)

### Prompt Test call, this compound: c1ccc(CNc2ncnc3c2ncn3C2CCCCO2)cc1 (configuration not stated)
### Response no (0)

These entries and their values trace back to PubChem BioAssay (Tox21).
